molecular target: hen egg white lysozyme (Gallus gallus, UniProt P00698)
Sequence (P00698 19-147): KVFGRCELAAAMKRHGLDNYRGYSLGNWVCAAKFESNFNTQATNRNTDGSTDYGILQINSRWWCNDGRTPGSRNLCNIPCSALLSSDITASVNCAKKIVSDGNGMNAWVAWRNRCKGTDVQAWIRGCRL
reportedEndpoint: Kd (µM)
Number in µM, nothing else.

Q. Need Kd of Nc1ccc2nc3ccc(N)cc3[s+]c2c1 [thionine acetate] , thanks.
A. 18.6

# credit: paper PMC8307938
